- Test system: MCF7
- Protocol text: Tested for inhibitory activity against human tumor cell line MCF7, a strain sensitive to doxorubicin of breast carcinoma using sulforhodamine B assay.
- Assay type: functional, cell-based
Property name: IC50 (nM)

The cases that follow already have their IC50 on record.
{"Chemical structure": "CN(C)CCN1C(=O)c2cccc3cc4c(c(c23)C1=O)CCCC4", "Uom": "nM", "IC50": 100}
{"Chemical structure": "CN(C)CCN1C(=O)c2cccc3c2c(cc2c(Cl)cccc23)C1=O", "Uom": "nM", "IC50": 60}
{"Chemical structure": "CN(C)CCN1C(=O)c2cc3cccnc3c3ccc(N)c(c23)C1=O", "Uom": "nM", "IC50": 270}
{"Chemical structure": "CN(C)CCN1C(=O)c2cccc3c2c(cc2c(O)cccc23)C1=O", "Uom": "nM", "IC50": 625}
{"Chemical structure": "CN(C)CCN1C(=O)c2cccc3c2c(cc2c([N+](=O)[O-])cccc23)C1=O", "Uom": "nM", "IC50": 150}
{"Chemical structure": "CC(=O)Nc1ccc2cc3c(c4c2c1C(=O)N(CCN(C)C)C4=O)CCCC3", "Uom": "nM", "IC50": 40}
{"Chemical structure": "CN(C)CCN1C(=O)c2c(N)ccc3cc4c(c(c23)C1=O)CCCC4", "Uom": "nM", "IC50": 120}
{"Chemical structure": "CN(C)CCN1C(=O)c2cccc3c2c(cc2cccc(O)c23)C1=O", "Uom": "nM", "IC50": 625}

1: CC(=O)Nc1ccc2c3c(cc4cccnc42)C(=O)N(CCN(C)C)C(=O)c13
2: COc1cccc2c1cc1c3c(cccc32)C(=O)N(CCN(C)C)C1=O
Lookup: Between these two entries, 1 and 2 , state which has the higher IC50. State the label of the item chosen.
Found: 2

---

- Test system: L1210
- Protocol text: Tested for inhibitory activity against murine cell line […], a strain sensitive to doxorubicin using MTT assay.
- Format: functional, cell-based
- Condition notes: Mus musculus
pIC50: −log10 of the molar value.
Property name: pIC50

{"Chemical structure": "CN(C)CCN1C(=O)c2cccc3c2c(cc2cccnc23)C1=O", "Experimental system": "L1210", "pIC50": 7.37}
{"Chemical structure": "CN(C)CCN1C(=O)c2cccc3c2c(cc2cccc(O)c23)C1=O", "Experimental system": "L1210", "pIC50": 6.27}
{"Chemical structure": "CN(C)CCN1C(=O)c2c(NC(=O)C(C)(C)C)ccc3cc4c(c(c23)C1=O)CCCC4", "Experimental system": "L1210", "pIC50": 5.66}
{"Chemical structure": "CN(C)CCN1C(=O)c2cc(NC(=O)C(C)(C)C)cc3cc4c(c(c23)C1=O)CCCC4", "Experimental system": "L1210", "pIC50": 6.01}
{"Chemical structure": "CN(C)CCN1C(=O)c2cccc3c2c(cc2c(O)cccc23)C1=O", "Experimental system": "L1210", "pIC50": 6.09}

I: CC(=O)Nc1ccc2c3c(cc4cccnc42)C(=O)N(CCN(C)C)C(=O)c13
II: CN(C)CCN1C(=O)c2cc(N)cc3cc4c(c(c23)C1=O)CCCC4
Lookup: Lowest pIC50? choose I or II State the label of the item chosen.
Found: I

P: COc1cccc2c1cc1c3c(cccc32)C(=O)N(CCN(C)C)C1=O
Q: CN(C)CCN1C(=O)c2cccc3cc4c(c(c23)C1=O)CCCC4
Lookup: Between these two entries, P and Q , state which has the higher pIC50. State the label of the item chosen.
Found: Q
(Q: 7.96, P: 6.28)
